Hello, the source for this data is paper PMC9944328, in case you need it.

target: SSTR2 (Homo sapiens); test: SSTRs Gi-mediated cAMP inhibition, GloSensor, HEK293, 5 μM forskolin, 15 min room temperature (SSTR2 wild-type); format: cell-based; details: EC50, WT-2, run paired with T194H
Sequence (P30874 whole entry): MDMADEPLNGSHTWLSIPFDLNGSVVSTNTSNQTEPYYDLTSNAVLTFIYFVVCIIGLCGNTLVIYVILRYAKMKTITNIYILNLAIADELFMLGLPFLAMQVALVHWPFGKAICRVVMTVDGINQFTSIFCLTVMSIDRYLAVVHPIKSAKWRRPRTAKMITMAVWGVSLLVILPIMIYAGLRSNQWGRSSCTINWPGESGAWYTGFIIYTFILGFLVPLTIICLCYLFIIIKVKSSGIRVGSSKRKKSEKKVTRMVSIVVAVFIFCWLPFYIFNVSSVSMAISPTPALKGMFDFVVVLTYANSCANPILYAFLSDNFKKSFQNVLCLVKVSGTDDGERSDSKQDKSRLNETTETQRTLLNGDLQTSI
pEC50: −log10 of the molar value.

{"columns": ["compound-structure", "pEC50"],
 "data": [
  ["N#Cc1cccc(-c2ccc3ncc(-c4cc(F)cc(F)c4)c(N4CCC(N)CC4)c3c2)c1O", 8.80]
]}

###

Test system: SSTR2 mutants
Assay: SSTRs Gi-mediated cAMP inhibition, GloSensor, HEK293, 5 μM forskolin, 15 min room temperature (SSTR2 mutants)
Format: cell-based, human
Conditions: read-out: EC50 (best-fit value); P220A-2 (run 2)
Protocol: The levels of the intracellular 3′, 5′-cyclic AMP (cAMP) were measured by the GloSensor cAMP assay (Promega) as described in the previous studies[28],[41] which has been widely used. The human full-length SSTRs and mutants were cloned into the pcDNA3.1+ vector with a HA signal sequence followed by a Flag tag at the N-terminus. […] Fluorescence signals were measured using the Synergy H1 microplate reader (BioTek) and the data presented are means of at least three independent experiments.

{"columns": ["compound", "target", "EC50 (nM)"],
 "data": [
  ["N#Cc1cccc(-c2ccc3ncc(-c4cc(F)cc(F)c4)c(N4CCC(N)CC4)c3c2)c1O [paltusotine]", "SSTR2 mutants", 3.09]
]}
